Attribute: normalized RNA/DNA level with ligand (log10)
B1: library; a variant is named by its letters at N, in order (parent)
chain: GCUGUCACCGGUGCUUGGUACGUUAUAUUCAGCCGGUCUGAUGAGUCUNNNNNNAGACGAAACAGC

- Variants of: B1
- assay.text: normalized RNA/DNA level with ligand (relative to sTRSVctl = 100) (log10 (% of sTRSVctl)); HEK293T overexpressing SLC46A1; ligand concentration (+) RNA-Seq: 6 mM; higher = less ribozyme self-cleavage, higher mRNA level
- settings: with (6R,S)-folinic acid; ligand present: yes

Previously resolved entries follow.
ACGACA 2.04
UCAAGC 2.05
UAUUUG 1.98

**Query** // lookup normalized RNA/DNA level with ligand (log10) for UCGCUG
**Result** 2.06

**Query** Further, for UCGUCA ?
**Result** 2.03

**Query** Further, for UCCGUU ?
**Result** 2.05

**Query** Further, for AUCUAG ?
**Result** 2.02
